Measured values drawn from the NIST ThermoML archive (doi:10.1016/j.jct.2018.10.015) for this set.

# condition-notes: 313.15 K; 101.3 kPa; Liquid; Vibrating tube method
± gives the expanded uncertainty stated by the source.

[
  {
    "compound": "CCCCn1cc[n+](C)c1C.O=S(=O)([N-]S(=O)(=O)C(F)(F)F)C(F)(F)F",
    "mass density": "1404.8 ± 2.5 kg/m3"
  },
  {
    "compound": "COC(=O)OC [dimethyl carbonate]",
    "mass density": "1043.1 ± 2.4 kg/m3"
  },
  {
    "compound": "CCn1cc[n+](C)c1C.O=S(=O)([N-]S(=O)(=O)C(F)(F)F)C(F)(F)F",
    "mass density": "1476.7 ± 2.5 kg/m3"
  },
  {
    "compound": "CCOC(=O)OCC [diethyl carbonate]",
    "mass density": "952.4 ± 2.4 kg/m3"
  }
]

* * *

# condition-notes: 298.15 K; 101.3 kPa; Liquid; Concentric cylinders viscometry

[
  {
    "molecule": "CCCCn1cc[n+](C)c1C.O=S(=O)([N-]S(=O)(=O)C(F)(F)F)C(F)(F)F",
    "uom": "mPa·s",
    "viscosity": 101.82
  },
  {
    "molecule": "CCOC(=O)OCC [diethyl carbonate]",
    "uom": "mPa·s",
    "viscosity": 0.751
  },
  {
    "molecule": "COC(=O)OC [dimethyl carbonate]",
    "uom": "mPa·s",
    "viscosity": 0.59
  },
  {
    "molecule": "CCn1cc[n+](C)c1C.O=S(=O)([N-]S(=O)(=O)C(F)(F)F)C(F)(F)F",
    "uom": "mPa·s",
    "viscosity": 71.34
  }
]

* * *

# condition-notes: 328.15 K; 101.3 kPa; Liquid; Concentric cylinders viscometry
± gives the expanded uncertainty stated by the source.
Below, each of the compounds is paired with its reported viscosity value.
measurement-label: viscosity

[
  {
    "compound": "CCCCn1cc[n+](C)c1C.O=S(=O)([N-]S(=O)(=O)C(F)(F)F)C(F)(F)F",
    "measurement-label": "viscosity",
    "reported-value": "28.91 ± 0.35 mPa·s"
  },
  {
    "compound": "CCn1cc[n+](C)c1C.O=S(=O)([N-]S(=O)(=O)C(F)(F)F)C(F)(F)F",
    "measurement-label": "viscosity",
    "reported-value": "24.16 ± 0.29 mPa·s"
  },
  {
    "compound": "COC(=O)OC [dimethyl carbonate]",
    "measurement-label": "viscosity",
    "reported-value": "0.425 ± 0.007 mPa·s"
  },
  {
    "compound": "CCOC(=O)OCC [diethyl carbonate]",
    "measurement-label": "viscosity",
    "reported-value": "0.523 ± 0.008 mPa·s"
  }
]

* * *

Listing: mass density of selected molecules
# condition-notes: 328.15 K; 101.3 kPa; Liquid; Vibrating tube method

[
  {
    "molecule": "COC(=O)OC [dimethyl carbonate]",
    "mass density / kg/m3": 1022.8
  },
  {
    "molecule": "CCn1cc[n+](C)c1C.O=S(=O)([N-]S(=O)(=O)C(F)(F)F)C(F)(F)F",
    "mass density / kg/m3": 1462.4
  },
  {
    "molecule": "CCCCn1cc[n+](C)c1C.O=S(=O)([N-]S(=O)(=O)C(F)(F)F)C(F)(F)F",
    "mass density / kg/m3": 1391
  },
  {
    "molecule": "CCOC(=O)OCC [diethyl carbonate]",
    "mass density / kg/m3": 935.2
  }
]

* * *

# condition-notes: 303.15 K; 101.3 kPa; Liquid; Vibrating tube method
Numbers after ± are expanded uncertainties.
measurement-label: mass density

[
  {
    "compound": "CCn1cc[n+](C)c1C.O=S(=O)([N-]S(=O)(=O)C(F)(F)F)C(F)(F)F",
    "reported-value": "1486.3 ± 2.5 kg/m3"
  },
  {
    "compound": "CCCCn1cc[n+](C)c1C.O=S(=O)([N-]S(=O)(=O)C(F)(F)F)C(F)(F)F",
    "reported-value": "1413.9 ± 2.5 kg/m3"
  },
  {
    "compound": "COC(=O)OC [dimethyl carbonate]",
    "reported-value": "1056.4 ± 2.4 kg/m3"
  },
  {
    "compound": "CCOC(=O)OCC [diethyl carbonate]",
    "reported-value": "963.7 ± 2.4 kg/m3"
  }
]

* * *

# condition-notes: 318.15 K; 101.3 kPa; Liquid; Vibrating tube method
measurement-label: mass density (kg/m3)

[
  {
    "molecule": "COC(=O)OC [dimethyl carbonate]",
    "reported-value": 1036.4
  },
  {
    "molecule": "CCCCn1cc[n+](C)c1C.O=S(=O)([N-]S(=O)(=O)C(F)(F)F)C(F)(F)F",
    "reported-value": 1400.2
  },
  {
    "molecule": "CCn1cc[n+](C)c1C.O=S(=O)([N-]S(=O)(=O)C(F)(F)F)C(F)(F)F",
    "reported-value": 1472
  },
  {
    "molecule": "CCOC(=O)OCC [diethyl carbonate]",
    "reported-value": 946.7
  }
]

* * *

# condition-notes: 323.15 K; 101.3 kPa; Liquid; Concentric cylinders viscometry
Entries and their viscosity
measurement-label: viscosity (mPa·s)

[
  {
    "compound": "COC(=O)OC [dimethyl carbonate]",
    "uom": "mPa·s",
    "reported-value": 0.446
  },
  {
    "compound": "CCCCn1cc[n+](C)c1C.O=S(=O)([N-]S(=O)(=O)C(F)(F)F)C(F)(F)F",
    "uom": "mPa·s",
    "reported-value": 34.32
  },
  {
    "compound": "CCn1cc[n+](C)c1C.O=S(=O)([N-]S(=O)(=O)C(F)(F)F)C(F)(F)F",
    "uom": "mPa·s",
    "reported-value": 28.05
  },
  {
    "compound": "CCOC(=O)OCC [diethyl carbonate]",
    "uom": "mPa·s",
    "reported-value": 0.552
  }
]

* * *

# condition-notes: 303.15 K; 101.3 kPa; Liquid; Concentric cylinders viscometry

[
  {
    "molecule": "CCCCn1cc[n+](C)c1C.O=S(=O)([N-]S(=O)(=O)C(F)(F)F)C(F)(F)F",
    "viscosity / mPa·s": 79.23
  },
  {
    "molecule": "COC(=O)OC [dimethyl carbonate]",
    "viscosity / mPa·s": 0.555
  },
  {
    "molecule": "CCOC(=O)OCC [diethyl carbonate]",
    "viscosity / mPa·s": 0.702
  },
  {
    "molecule": "CCn1cc[n+](C)c1C.O=S(=O)([N-]S(=O)(=O)C(F)(F)F)C(F)(F)F",
    "viscosity / mPa·s": 57.64
  }
]

* * *

Here, each record is paired with measured viscosity data.
# condition-notes: 308.15 K; 101.3 kPa; Liquid; Concentric cylinders viscometry
measurement-label: viscosity (mPa·s)

[
  {
    "compound": "CCn1cc[n+](C)c1C.O=S(=O)([N-]S(=O)(=O)C(F)(F)F)C(F)(F)F",
    "reported-value": 47.26
  },
  {
    "compound": "CCOC(=O)OCC [diethyl carbonate]",
    "reported-value": 0.659
  },
  {
    "compound": "CCCCn1cc[n+](C)c1C.O=S(=O)([N-]S(=O)(=O)C(F)(F)F)C(F)(F)F",
    "reported-value": 62.74
  },
  {
    "compound": "COC(=O)OC [dimethyl carbonate]",
    "reported-value": 0.525
  }
]

* * *

The entries below are paired with their reported viscosity.
# condition-notes: 313.15 K; 101.3 kPa; Liquid; Concentric cylinders viscometry

[
  {
    "molecule": "COC(=O)OC [dimethyl carbonate]",
    "viscosity (mPa·s)": 0.495
  },
  {
    "molecule": "CCn1cc[n+](C)c1C.O=S(=O)([N-]S(=O)(=O)C(F)(F)F)C(F)(F)F",
    "viscosity (mPa·s)": 39.24
  },
  {
    "molecule": "CCOC(=O)OCC [diethyl carbonate]",
    "viscosity (mPa·s)": 0.62
  },
  {
    "molecule": "CCCCn1cc[n+](C)c1C.O=S(=O)([N-]S(=O)(=O)C(F)(F)F)C(F)(F)F",
    "viscosity (mPa·s)": 50.56
  }
]

* * *

# condition-notes: 293.15 K; 101.3 kPa; Liquid; Vibrating tube method

[
  {
    "molecule": "CCCCn1cc[n+](C)c1C.O=S(=O)([N-]S(=O)(=O)C(F)(F)F)C(F)(F)F",
    "mass density, kg/m3": 1423.1
  },
  {
    "molecule": "COC(=O)OC [dimethyl carbonate]",
    "mass density, kg/m3": 1069.7
  },
  {
    "molecule": "CCOC(=O)OCC [diethyl carbonate]",
    "mass density, kg/m3": 974.9
  },
  {
    "molecule": "CCn1cc[n+](C)c1C.O=S(=O)([N-]S(=O)(=O)C(F)(F)F)C(F)(F)F",
    "mass density, kg/m3": 1495.8
  }
]
